// values below are reported protein stability index
B1: SNX8 (parent)
chain: RMVPALPPKRMLGADREFIEARRR

# Variants of: B1
# Procedure Summary: protein stability index of a GFP-peptide fusion (GPS, HEK-293T) (PSI 1-6); higher = more stable;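 further: lentivirally expressed fusions sorted by FACS into six bins by GFP to DsRed ratio, PSI derived from sequencing read proportions per bin multiplied by bin number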
# Recorded Conditions: c terminus: a fixed tail appended
API note: the answer field is a bare number with no unit suffix.

RMVPALGPKRMLGADREFIEARRR [P7G] | 4.01
RMVPALPPPRMLGADREFIEARRR [K9P] | 4.37
RMVPAFPPKRMLGADREFIEARRR [L6F] | 3.45
RMVPALPPKRMIGADREFIEARRR [L12I] | 4.08

Would you kindly look at the next entry?
Req: If you can, please state the reported protein stability index value of RMVVALPPKRMLGADREFIEARRR [P4V] .
Resp: 3.58
